# Test system: Bacillus subtilis BS01
# assay method text: Antibacterial assay, micro broth dilution
# Format: cell-based
# condition context: BS01, micro broth dilution, LB medium, 24 hours at 37 °C, read-out: Antibacterial Activity (MIC) B. subtilis
# Procedure: The micro broth dilution method was used to evaluate the antibacterial activities of compounds 1–19 against the growth of eight common pathogens: Bacillus subtilis BS01, Micrococcus luteus, Escherichia coli ATCC 25922, Staphylococcus aureus ATCC 6538, S. aureus MRSA, Streptococcus agalactiae ATCC 13813, S. iniae, and Pseudomonas aeruginosa ATCC 9027 in 96-well polystyrene plates. […] The MICs were determined after 24 hours’ incubation at 37 °C with the tested compounds.
// boundary case: MIC equal to 50 µg/mL maps to criterion not met; strictly smaller maps to criterion met

For this compound, is MIC lower than 50 µg/mL? CSC12CC3=COC=CC(OC(C)=O)C3N1C(=O)C1(SC)CC34OC3C3OC3C(OC(C)=O)C4N1C2=O (centres unmarked)
criterion not met

Given CSS[C@@]12CC3=COC=C[C@H](OC(C)=O)[C@H]3N1C(=O)[C@]1(SC)CC3=COC=C[C@H](OC(C)=O)[C@H]3N1C2=O , is recorded MIC strictly lower than 50 µg/mL?
criterion met

Strictly below 50 µg/mL: is that where MIC of CSC12CC3=COC=CC(O)C3N1C(=O)C1(Cc3ccccc3O1)NC2=O (centres unmarked) sits?
criterion not met

* * *

# Test system: Pseudomonas aeruginosa ATCC 9027
# assay method text: Antibacterial assay, micro broth dilution
# Type: cell-based
# condition context: ATCC9027, micro broth dilution, LB medium, 24 hours at 37 °C, read-out: Antibacterial Activity (MIC) P. aeruginosa
Reported MIC values for a set of molecules

Example molecules with recorded MIC:
Looking for the measured MIC of O=C(O)c1cn(C2CC2)c2cc(N3CCNCC3)c(F)cc2c1=O [CFN, Ciprofloxacin, reference compound] , can you help?
0.6 mg/L

Returns the measured MIC for the input molecule. Input: CS[C@@]12CC3=CC=C[C@H](O)[C@H]3N1C(=O)[C@]1(SC)CC3=COC=C[C@H](O)[C@H]3N1C2=O
> 80 mg/L

More entries:
# input molecule: CSC12CC3=COC=CC(OC(C)=O)C3N1C(=O)C1(SC)CC3(O)C=CC(=O)C(OC(C)=O)C3N1C2=O (stereo not drawn) ; wanted: its MIC
> 80 mg/L

* * *

# Tested on: Escherichia coli ATCC 25922
# assay method text: Antibacterial assay, micro broth dilution
# Assay type: cell-based
# condition context: ATCC25922, micro broth dilution, LB medium, 24 hours at 37 °C, read-out: Antibacterial Activity (MIC) E. coli
Listed compounds paired with reported MIC

Below, 2 compounds whose answers are already recorded.
API: value(readout=MIC, system=Escherichia coli ATCC 25922) for record CS[C@@]12CC3=CC=C[C@H](OC(C)=O)[C@H]3N1C(=O)[C@]1(SC)CC3=COC=C[C@H](O)[C@H]3N1C2=O [Compound 11]
> 80 µg/mL

Lab request: please report MIC under test system Escherichia coli ATCC 25922 for CSS[C@@]12CC3=COC=C[C@H](OC(C)=O)[C@H]3N1C(=O)[C@]1(SC)CC3=COC=C[C@H](OC(C)=O)[C@H]3N1C2=O [Compound 5, Lecanicillium E]
80 µg/mL

// next item, MIC requested
API: value(readout=MIC, system=Escherichia coli ATCC 25922) for record CS[C@@]12CC3=CC=C[C@H](OC(C)=O)[C@H]3N1C(=O)[C@]1(SC)CC3=COC=C[C@H](OC(C)=O)[C@H]3N1C2=O [Compound 12]
> 80 µg/mL
